Data credit: the METLIN SMRT retention time set (Domingo-Almenara et al. 2019)

- PROCEDURE DETAILS: gradient 5% acetonitrile 3 min, to 50% in 2 min, to 85% in 15 min, held 3 min, 100 µL/min
- TEST CONTEXT: column: Zorbax Extend-C18 2.1 x 50 mm; eluents: water / acetonitrile, 0.1% formic acid
ENDPOINT: RP-LC retention time (s)

Consider the worked cases shown below.
CCN1CCN(CCCNC(=O)CN2C(=O)C3CCCCN3c3ccc(C(=O)N(C)C)cc32)CC1 (centres undefined) ... 579
CC1=NS(=O)(=O)N(C)C=C1C(=O)OCc1noc(-c2ccccc2C)n1 ... 987
COc1ccc(N2CCN(S(=O)(=O)N(C)C)CC2)cc1 ... 736
Cc1ccc(-c2nnc(-c3cccc(S(=O)(=O)NCC4CCCO4)c3)o2)cc1 (centres undefined) ... 918
COC(=O)c1ccccc1Nc1c(-c2ccc(OC)cc2)nc2cnccn12 ... 948

1: COc1ccc(OCc2nc(-c3ccc(S(=O)(=O)N4CCOCC4)cc3)no2)cc1
2: CCn1c(CN(C)C(=O)Nc2ccc3c(c2)OCO3)nc2cc(C(=O)N(C)C)ccc21
// compare measured RP-LC retention time, left 1 , right 2 , return larger Indicate which entry you chose by stating its label. 1
(1: 1000 s, 2: 607 s)

1: Cc1cc(N2CCN(c3ccccn3)CC2)n2nc(C(F)(F)F)nc2n1
2: O=C(NCc1ccccc1)C1CCCN(S(=O)(=O)c2cc(-c3noc(C4CCC4)n3)cs2)C1 (centres undefined)
// compare measured RP-LC retention time, left 1 , right 2 , return larger Indicate which entry you chose by stating its label. 2
(2: 1080 s, 1: 604 s)

* * *

- PROCEDURE DETAILS: gradient 5% acetonitrile 3 min, to 50% in 2 min, to 85% in 15 min, held 3 min, 100 µL/min
- TEST CONTEXT: column: Zorbax Extend-C18 2.1 x 50 mm; eluents: water / acetonitrile, 0.1% formic acid
ENDPOINT: RP-LC retention time (s)

COc1ccc(C2CC(=O)N(c3cccc(F)c3)C(=O)C2)cc1OC ... 839
Cc1nc(C)c(C(=O)NCC23CCCC=C2NC(=O)CC3)s1 (stereo not given) ... 633
CC(C)Cn1c(=O)c(N2CCN(C(=O)Nc3ccccc3)CC2)nc2ccncc21 ... 577
O=C(c1ccc(Br)cc1)N1CCN(c2nc(CN3CCCCC3)cs2)CC1 ... 655
Cc1nc(CC(=O)Nc2ccc(F)cc2F)cs1 ... 739

* * *

- PROCEDURE DETAILS: gradient 5% acetonitrile 3 min, to 50% in 2 min, to 85% in 15 min, held 3 min, 100 µL/min
- TEST CONTEXT: column: Zorbax Extend-C18 2.1 x 50 mm; eluents: water / acetonitrile, 0.1% formic acid
ENDPOINT: RP-LC retention time (s)

Consider the worked cases shown below.
Cc1ccc(-c2nnc(-c3nn(C)c4c3CN(S(=O)(=O)c3cccc(F)c3)CC4)o2)cc1 ... 999
CCOc1ccc(NC(=O)c2c(NC(=O)c3ccncc3)sc3c2CCC3)cc1 ... 1270
O=C(CSc1nc(N2CCc3ccccc3C2)nc2ccccc12)NC1CCCCC1 ... 728
O=C(c1cc(-c2cccnc2)n[nH]1)N1CCN(C(=O)c2cccc3[nH]ccc23)CC1 ... 598
Cc1nc(C)c(C(=O)NCC2Cn3cccc3C(=O)N2CC(C)C)s1 (centres undefined) ... 671
COC(=O)c1cc(OCC(=O)Nc2cccc(OC)c2)c2ccccc2n1 ... 779
O=C(Nc1cccc2c1N(C(=O)c1ccco1)CCC2)c1ccco1 ... 784

I: Cc1ccc(C(=O)NCc2ccc3c(c2)ncn3C)s1
II: COc1cccc(Cn2nc3c(S(=O)(=O)N4CCCCCC4)cccn3c2=O)c1
// compare measured RP-LC retention time, left I , right II , return larger Indicate which entry you chose by stating its label. II

* * *

- PROCEDURE DETAILS: gradient 5% acetonitrile 3 min, to 50% in 2 min, to 85% in 15 min, held 3 min, 100 µL/min
- TEST CONTEXT: column: Zorbax Extend-C18 2.1 x 50 mm; eluents: water / acetonitrile, 0.1% formic acid
ENDPOINT: RP-LC retention time (s)

Consider the worked cases shown below.
O=C(Cc1cccn1-c1ccc(Cl)cc1)NC1CCCC1 ... 945
O=C1CCSc2ccc(S(=O)(=O)N3CCC(C(=O)NCc4ccccc4)CC3)cc2N1 ... 761
COc1ccc(C(=O)N2CCCC(COc3ccc(C(=O)NC(C)C)cc3)C2)cc1F (centres undefined) ... 846
Cc1ccc(-c2noc(-c3cccc(S(=O)(=O)N4CCOCC4)c3)n2)cc1 ... 1120
Cc1cccc(-c2noc(CSc3nccn3-c3ccccc3)n2)c1 ... 969
COCCCNC(=O)CCc1cc2cc(OC)ccc2[nH]c1=O ... 611
Cc1cc(Cl)ccc1S(=O)(=O)N1CCn2c(nn(CC3CC3)c2=O)C1 ... 872
Cc1nc2nc(-c3ccccc3)nn2c(Sc2ccccc2N)c1C ... 710

1: O=C1Nc2cc(C(=O)N3CCN(Cc4ccccc4)CC3)ccc2N2CCCCC12 (centres undefined)
2: C=CCN1C(=O)COc2ccc(-c3nc(NC(=O)c4ccco4)sc3C)cc21
// compare measured RP-LC retention time, left 1 , right 2 , return larger Indicate which entry you chose by stating its label. 2
(2: 903 s, 1: 612 s)

* * *

- PROCEDURE DETAILS: gradient 5% acetonitrile 3 min, to 50% in 2 min, to 85% in 15 min, held 3 min, 100 µL/min
- TEST CONTEXT: column: Zorbax Extend-C18 2.1 x 50 mm; eluents: water / acetonitrile, 0.1% formic acid
ENDPOINT: RP-LC retention time (s)

CCN1C(=O)C(CC(=O)NC2CCCCC2)Sc2ncccc21 (stereo not given) ... 743

a: COc1ccc(NC(=O)CSc2nccc(N3CCN(c4cc(C)ccc4C)CC3)n2)cc1Cl
b: O=C(Cc1csc(Nc2cccc(C(F)(F)F)c2)n1)NCc1ccco1
// compare measured RP-LC retention time, left a , right b , return larger Indicate which entry you chose by stating its label. a

* * *

- PROCEDURE DETAILS: gradient 5% acetonitrile 3 min, to 50% in 2 min, to 85% in 15 min, held 3 min, 100 µL/min
- TEST CONTEXT: column: Zorbax Extend-C18 2.1 x 50 mm; eluents: water / acetonitrile, 0.1% formic acid
ENDPOINT: RP-LC retention time (s)

Cc1cccc(C(=O)N2C(C(=O)NCC3CCCO3)COC23CCN(C(=O)C(C)(C)C)CC3)c1 (stereo not given) ... 684
CCN1c2ccc(F)cc2C(=O)NC12CCN(C(=O)c1ccc(F)cc1)CC2 ... 714
CCCC(C(=O)OCCN(CC)CC)(c1ccccc1)c1ccccc1 ... 920
COCCN(Cc1ccncc1)C(=O)c1ccc2nsnc2c1 ... 544
CCN(CC)C(C)CN1c2ccccc2Sc2ccccc21 (stereo not given) ... 813
COC(=O)c1ncn2c1C(=O)N(C1CC1)C(C)(C(=O)NCc1cccc(C)c1)C2 (stereo not given) ... 658
Cc1ccccc1CNC(=O)Cn1cccc1-c1nnc(-c2ccccc2)o1 ... 950
O=c1c2c(CO)c(-c3ccccc3)nn2ccn1Cc1ccccc1F ... 902

a: O=C(NC1CC1)c1nc2ccccn2c1-c1ccc(F)cc1
b: Cc1ccc(-c2noc(Cn3c(=O)n(-c4cccc(C)c4)c(=O)c4sccc43)n2)cc1
// compare measured RP-LC retention time, left a , right b , return larger Indicate which entry you chose by stating its label. b

* * *

- PROCEDURE DETAILS: gradient 5% acetonitrile 3 min, to 50% in 2 min, to 85% in 15 min, held 3 min, 100 µL/min
- TEST CONTEXT: column: Zorbax Extend-C18 2.1 x 50 mm; eluents: water / acetonitrile, 0.1% formic acid
ENDPOINT: RP-LC retention time (s)

O=C(NCCCN1CCOCC1)C1CCCN(c2nc3ccccc3n(Cc3ccccc3)c2=O)C1 (centres undefined) ... 720
CCOC(=O)c1ccc(NC(=O)Nc2c(-c3ccncc3)nc3ccccn23)cc1 ... 631
CC(=O)N1c2ccc(S(=O)(=O)N3CCCC3C(=O)Nc3cc(C)ccn3)cc2CC1C (centres undefined) ... 617
O=C(NCc1nc2ccccc2n1CC(=O)N1CCCCC1)c1ccco1 ... 614
Cc1cc(C)c(S(=O)(=O)NC(C)Cn2cncn2)c(C)c1 (centres undefined) ... 664
COc1cccc(CN2CCC(N3C(=O)C4(CCCCC4)C3c3ccncc3)CC2)c1OC (centres undefined) ... 601
CCN(CC)CCCNC(=O)C1CCCN(c2ncc(-c3ccccc3)cn2)C1 (centres undefined) ... 673
Cc1cn(C)c(CC(=O)NCCCN2CCN(C)CC2)c1C(=O)O ... 561
Cc1cc(N2CCOCC2)nc(Nc2ccc(NC(=O)C(C)Oc3ccccc3)cc2)n1 (centres undefined) ... 580
